Molecular target: human Claudin-6 (CLDN6) (human) (UniProt P56747)
Assay: FACS, 1.5 ug Ab, 293T clone expressing human CLDN6 (2nd Ab only 768.07)
measure: FACS fluorescence
# answer = number (no unit)

Here is how some binders turned out for FACS fluorescence.
binder: AB9-4 (antibody, V domains shown, humanized) VH: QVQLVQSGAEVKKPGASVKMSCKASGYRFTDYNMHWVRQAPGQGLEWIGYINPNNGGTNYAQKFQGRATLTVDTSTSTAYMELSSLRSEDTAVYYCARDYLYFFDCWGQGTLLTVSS VL: DIQMTQSPSSLSASVGDRVTITCRASQTIGTWLAWYQQKPGKAPKLLIYAAASLADGVPSRFSGSGSGTDFTFTISSLQPEDFVTYYCQQLYSIPRTFGQGTKLEIK
FACS fluorescence: 34300
--
binder: AB4-5 (antibody, V domains shown, humanized) VH: QVQLVQSGAEVKKPGASVKMSCKASGYTFTSYTMHWIRQAPGQGQEWIGYINPSSTYTHYAQKFQGRATLTADTSTSTAYMELSSLRSEDTAVYYCSRGELGGFAYWGQGTLVTVSS VL: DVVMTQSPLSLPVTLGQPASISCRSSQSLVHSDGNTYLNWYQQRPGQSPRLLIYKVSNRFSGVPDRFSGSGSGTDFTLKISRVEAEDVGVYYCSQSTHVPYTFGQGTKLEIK
FACS fluorescence: 43400
--
binder: AB18-chim (antibody, V domains shown) VH: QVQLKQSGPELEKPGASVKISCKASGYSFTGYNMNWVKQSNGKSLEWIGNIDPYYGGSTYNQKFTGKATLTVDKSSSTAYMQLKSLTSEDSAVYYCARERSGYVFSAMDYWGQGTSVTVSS VL: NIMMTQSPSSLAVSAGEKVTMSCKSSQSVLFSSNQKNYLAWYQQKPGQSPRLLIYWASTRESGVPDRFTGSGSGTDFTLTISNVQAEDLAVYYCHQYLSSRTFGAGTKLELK
FACS fluorescence: 135000
--
binder: AB3-5 (antibody, V domains shown, humanized) VH: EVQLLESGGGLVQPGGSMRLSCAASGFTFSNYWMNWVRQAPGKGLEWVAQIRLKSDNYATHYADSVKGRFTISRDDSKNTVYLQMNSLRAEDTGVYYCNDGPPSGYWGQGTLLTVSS VL: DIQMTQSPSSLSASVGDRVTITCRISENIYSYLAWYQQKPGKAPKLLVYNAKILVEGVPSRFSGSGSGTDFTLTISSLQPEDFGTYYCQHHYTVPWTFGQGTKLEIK
FACS fluorescence: 48600

# next binder below
Field FACS fluorescence (entry AB3-4 (antibody, V domains shown, humanized) VH: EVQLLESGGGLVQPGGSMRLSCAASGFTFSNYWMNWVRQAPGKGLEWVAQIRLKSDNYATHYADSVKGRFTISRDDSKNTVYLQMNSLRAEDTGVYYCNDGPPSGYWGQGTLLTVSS VL: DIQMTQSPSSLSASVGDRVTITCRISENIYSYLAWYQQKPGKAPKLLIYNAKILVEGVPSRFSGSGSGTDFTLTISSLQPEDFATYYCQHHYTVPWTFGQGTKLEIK ) reads 55800

These entries and their values trace back to patent US20230049752A1.
